- TARGET_OR_SYSTEM: UniProt P17706
- Sequence (P17706 1-415): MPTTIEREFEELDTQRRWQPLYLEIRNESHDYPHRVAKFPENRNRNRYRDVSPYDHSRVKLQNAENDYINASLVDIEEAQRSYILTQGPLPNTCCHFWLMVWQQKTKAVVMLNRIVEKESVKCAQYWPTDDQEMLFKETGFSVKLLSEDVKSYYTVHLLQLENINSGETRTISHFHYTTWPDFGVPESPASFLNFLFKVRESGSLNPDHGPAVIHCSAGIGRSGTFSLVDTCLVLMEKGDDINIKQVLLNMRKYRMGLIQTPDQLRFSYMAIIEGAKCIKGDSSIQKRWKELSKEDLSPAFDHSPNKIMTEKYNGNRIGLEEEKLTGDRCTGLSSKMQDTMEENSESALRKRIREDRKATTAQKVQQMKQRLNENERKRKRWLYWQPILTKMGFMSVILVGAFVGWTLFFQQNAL
- TEST_SUMMARY: PTPN2 BCHEM (PhosphoSens assay, substrate AQT0264)
- Type: biochemical
- ASSAY_CONDITIONS: PhosphoSens substrate AQT0264 20 μM, PTPN2 150 pM, room temperature
Readings of IC50 for the listed compounds
Param answer (str): number followed by unit.

Record Cc1cc(NCc2cc(O)c(N3CC(=O)NS3(=O)=O)c(F)c2)no1 ; system UniProt P17706; IC50 = 20 nM

// IC50 (UniProt P17706) for Cc1ccc(-c2csc(N(C)Cc3cc(O)c(N4CC(=O)NS4(=O)=O)c(F)c3)n2)c(C)c1 = 940 nM

----------
- Test system: phosphorylated STAT1 in B16-F10 cells
- TEST_SUMMARY: Phospho-STAT1 (Tyr701) HTRF assay in B16-F10 cells with IFN-gamma
- Type: cell-based
- ASSAY_CONDITIONS: mouse IFN-gamma 100 ng/mL, 1 hour, read-out: pSTAT1 HTRF B16 EC50
Form field: pEC50 (one value per entry).
Note on pEC50: it is the negative log10 of concentration, concentration in mol/L.

Reference set (3 entries):
INSERT INTO assay_data (smiles_repr, experimental_result) VALUES
  ('O=C1CN(c2c(O)cc(CNc3nccs3)cc2F)S(=O)(=O)N1', 5.84),
  ('Cc1cc(NCc2cc(O)c(N3CC(=O)NS3(=O)=O)c(F)c2)sn1', 6.16),
  ('Cc1cc(NCc2cc(O)c(N3CC(=O)NS3(=O)=O)c(F)c2)no1', 6.46);

Item: Cn1ccc(NCc2cc(O)c(N3CC(=O)NS3(=O)=O)c(F)c2)n1 | pEC50: 5.16

----------
- TARGET_OR_SYSTEM: human PTPN2 (Homo sapiens)
- Sequence (P17706 1-415): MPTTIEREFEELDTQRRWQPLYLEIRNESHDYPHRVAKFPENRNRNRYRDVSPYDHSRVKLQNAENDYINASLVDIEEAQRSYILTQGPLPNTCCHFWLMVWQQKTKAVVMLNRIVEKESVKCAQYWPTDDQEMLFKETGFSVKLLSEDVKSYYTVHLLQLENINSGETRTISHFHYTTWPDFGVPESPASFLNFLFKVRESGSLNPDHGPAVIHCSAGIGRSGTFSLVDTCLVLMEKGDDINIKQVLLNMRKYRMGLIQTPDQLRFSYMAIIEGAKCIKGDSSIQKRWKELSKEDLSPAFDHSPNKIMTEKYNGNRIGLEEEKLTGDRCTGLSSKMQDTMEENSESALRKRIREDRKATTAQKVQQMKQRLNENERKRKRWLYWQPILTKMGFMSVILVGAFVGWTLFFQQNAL
- TEST_SUMMARY: Phosphatase activity assay using DiFMUP as substrate (PTPN2 BCHEM DIFMUP)
- Format: biochemical
- Parameters: purchased MilliporeSigma SRP5075
- ASSAY_CONDITIONS: human PTPN2 0.15 nM, 10 mM DTT, room temperature
Each item that follows carries a reported IC50.
Express it in nM; write the number only.

INSERT INTO measurements (smiles_repr, experimental_result) VALUES
  ('O=C1CN(c2c(O)cc(CNc3nncs3)cc2F)S(=O)(=O)N1', 10),
  ('Cn1ccc(NCc2cc(O)c(N3CC(=O)NS3(=O)=O)c(F)c2)n1', 10),
  ('Cc1cnc(NCc2cc(O)c(N3CC(=O)NS3(=O)=O)c(F)c2)[nH]1', 160),
  ('Cc1cc(NCc2cc(O)c(N3CC(=O)NS3(=O)=O)c(F)c2)[nH]n1', 4),
  ('O=C1CN(c2c(O)cc(CNc3ccon3)cc2F)S(=O)(=O)N1', 20),
  ('Cc1cc(NCc2cc(O)c(N3CC(=O)NS3(=O)=O)c(F)c2)no1', 30),
  ('O=C1CN(c2c(O)cc(CNc3cc[nH]n3)cc2F)S(=O)(=O)N1', 20),
  ('Cn1ccnc1NCc1cc(O)c(N2CC(=O)NS2(=O)=O)c(F)c1', 10);

Short answer for O=C1CN(c2c(O)cc(CNc3nccs3)cc2F)S(=O)(=O)N1 : IC50 was 3

Entry Cc1cc(NCc2cc(O)c(N3CC(=O)NS3(=O)=O)c(F)c2)sn1 ; IC50 = 20

Lookup result for O=C1CN(c2c(O)cc(CNc3nc[nH]n3)cc2F)S(=O)(=O)N1 ; measured IC50: 40

Sure, the documented IC50 for Cc1nnc(NCc2cc(O)c(N3CC(=O)NS3(=O)=O)c(F)c2)s1 is 10

Input Cc1csc(NCc2cc(O)c(N3CC(=O)NS3(=O)=O)c(F)c2)n1 . Output IC50: 10

Looking up O=C1CN(c2c(O)cc(CNc3ncc[nH]3)cc2F)S(=O)(=O)N1 , I found its IC50 recorded as 6

IC50 for Cc1ccc(-c2csc(N(C)Cc3cc(O)c(N4CC(=O)NS4(=O)=O)c(F)c3)n2)c(C)c1 is 720

----------
Listed here: items and their measured EC50.
- Test system: phosphorylated STAT1 in B16-F10 cells
- TEST_SUMMARY: Phospho-STAT1 (Tyr701) HTRF assay in B16-F10 cells with IFN-gamma
- Type: cell-based
- ASSAY_CONDITIONS: mouse IFN-gamma 100 ng/mL, 1 hour, read-out: pSTAT1 HTRF B16 EC50
Give your result in nM as a bare value.

INSERT INTO assay_data (compound, result_unit, experimental_result) VALUES
  ('Cc1cnc(NCc2cc(O)c(N3CC(=O)NS3(=O)=O)c(F)c2)[nH]1 [EXAMPLE 8]', 'nM', 4650),
  ('O=C1CN(c2c(O)cc(CNc3ccon3)cc2F)S(=O)(=O)N1 [EXAMPLE 3]', 'nM', 30),
  ('Cc1csc(NCc2cc(O)c(N3CC(=O)NS3(=O)=O)c(F)c2)n1 [EXAMPLE 13]', 'nM', 230),
  ('Cc1nnc(NCc2cc(O)c(N3CC(=O)NS3(=O)=O)c(F)c2)s1 [EXAMPLE 12]', 'nM', 230),
  ('O=C1CN(c2c(O)cc(CNc3nc[nH]n3)cc2F)S(=O)(=O)N1 [EXAMPLE 5]', 'nM', 930),
  ('O=C1CN(c2c(O)cc(CNc3ncc[nH]3)cc2F)S(=O)(=O)N1 [EXAMPLE 10]', 'nM', 90),
  ('Cn1ccnc1NCc1cc(O)c(N2CC(=O)NS2(=O)=O)c(F)c1 [EXAMPLE 11]', 'nM', 210),
  ('Cc1cc(NCc2cc(O)c(N3CC(=O)NS3(=O)=O)c(F)c2)[nH]n1 [EXAMPLE 15]', 'nM', 630);

The record that follows has no EC50 shown yet.
Value of EC50 reported for the compound O=C1CN(c2c(O)cc(CNc3nncs3)cc2F)S(=O)(=O)N1 [EXAMPLE 7] is 150

Origin of the recorded values: patent US20240238258A1
